The reported measurements were obtained from ChEMBL document CHEMBL1811791.

measured.target: Dipeptidyl peptidase 8 (Homo sapiens, UniProt Q6V1X1)
Sequence (Q6V1X1 whole entry): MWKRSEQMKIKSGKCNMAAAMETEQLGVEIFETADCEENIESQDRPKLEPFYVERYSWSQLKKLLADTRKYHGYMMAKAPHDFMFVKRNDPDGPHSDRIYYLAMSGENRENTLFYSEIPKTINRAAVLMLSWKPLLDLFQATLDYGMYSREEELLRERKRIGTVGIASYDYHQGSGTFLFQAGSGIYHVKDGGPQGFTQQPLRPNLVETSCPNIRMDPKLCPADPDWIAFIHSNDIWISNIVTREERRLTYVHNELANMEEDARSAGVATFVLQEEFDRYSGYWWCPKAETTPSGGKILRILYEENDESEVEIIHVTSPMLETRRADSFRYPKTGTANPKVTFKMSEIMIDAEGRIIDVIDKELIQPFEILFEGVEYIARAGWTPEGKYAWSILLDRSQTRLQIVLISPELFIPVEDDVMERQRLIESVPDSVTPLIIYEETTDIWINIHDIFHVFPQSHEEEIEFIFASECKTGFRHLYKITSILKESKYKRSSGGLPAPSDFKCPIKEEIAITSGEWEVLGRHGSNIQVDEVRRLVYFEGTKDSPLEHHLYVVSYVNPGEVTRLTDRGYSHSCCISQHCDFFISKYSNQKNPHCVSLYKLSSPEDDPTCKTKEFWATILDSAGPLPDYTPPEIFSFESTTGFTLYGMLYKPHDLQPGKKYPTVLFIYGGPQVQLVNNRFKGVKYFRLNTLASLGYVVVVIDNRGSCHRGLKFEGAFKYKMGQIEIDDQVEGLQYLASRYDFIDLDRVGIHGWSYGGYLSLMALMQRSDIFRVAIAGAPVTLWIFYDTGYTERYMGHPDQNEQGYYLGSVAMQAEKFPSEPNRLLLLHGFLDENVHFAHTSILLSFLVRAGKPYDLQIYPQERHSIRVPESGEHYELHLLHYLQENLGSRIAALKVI
assay.explanation: Inhibition of recombinant human DPP8 assessed as pNA release from Ala-Pro- p-nitroanilide substrate pre-incubated with enzyme for 15 min prior to substrate addition by fluorescence technique
quantity: IC50

The examples below pair each entry with its known result.
| cpd.smiles | IC50 |
| --- | --- |
| O=C(CCC(=O)N1Cc2ccccc2C1)N1CCN(C(c2ccc(F)cc2)c2ccc(F)cc2)CC1 | > 10 µM |
| N[C@@H](CC(=O)N1CCN(C(c2ccc(F)cc2)c2ccc(F)cc2)CC1)C(=O)N1Cc2ccccc2C1 | 0.012 µM |

Next compound, please.
// N[C@@H](CC(=O)NC12CC3CC(CC(O)(C3)C1)C2)C(=O)N1Cc2ccccc2C1 : IC50 value = > 10 µM
